# ASSAYED_TARGET: human TLR7 (Homo sapiens)
# PROCEDURE_DETAILS: TLR7 inhibition reporter assay (HEK-Blue cells, SEAP reporter, gardiquimod stimulation)
# EXPERIMENTAL_CONDITIONS: HEK-Blue cells overexpressing human TLR7, SEAP reporter, gardiquimod 7.5 μM
QUANTITY_MEASURED: IC50 (nM)

Would you please look over these solved cases?
COc1cc(-c2[nH]c3ccc(C4CC(N(C)C(=O)CN(C)C)C4)cc3c2C(C)C)cn2ncnc12 (stereo not shown) [Example 588]	0.4
Cc1cc(-c2[nH]c3ccc(C4CCC(C(=O)N5CCN(C)CC5)CC4)cc3c2C(C)C)cn2ncnc12 (single isomer, unassigned) [Example 157]	0.38
COc1cc(-c2[nH]c3ccc(C4CCCNC4)cc3c2C(C)C)cn2ncnc12 (single isomer, unassigned) [Example 182]	1
Cc1cc(-c2[nH]c3ccc(C4CCCN(C(=O)C5(N)CC5)C4)cc3c2C(C)C)cc(C)n1 (stereo not shown)	7
CN[C@@H](C)C(=O)N1CCCC(c2ccc3[nH]c(-c4cc(C)nc(C)c4)c(C(C)C)c3c2)C1 (stereo partly shown) [Example 216]	7

a. Cc1c(-c2[nH]c3ccc(C4CCC(NC5COC5)CC4)cc3c2C(C)C)cn2ncnc2c1C (single isomer, unassigned) [Example 85]
b. Cc1c(-c2[nH]c3ccc(C4CN(CC(=O)N(C)C)C(C)(C)CO4)cc3c2C(C)C)cn2ncnc2c1C (stereo not shown) [Example 387]
c. Cc1cc(-c2[nH]c3ccc(C4CN(CC(C)(C)O)CCO4)cc3c2C(C)C)cn2ncnc12 (single isomer, unassigned) [Example 356]
d. Cc1c(-c2[nH]c3ccc(C4CCC(NC5COC5)CC4)cc3c2C(C)C)cn2ncnc2c1C (single isomer, unassigned) [Example 86]
e. COc1cc(-c2[nH]c3ccc(C4CC(N)C4)cc3c2C(C)C)cn2ncnc12 (stereo not shown)
Ask | Arrange by IC50, high to low. Reply: labels, ordered per the request.
Reply | b, c, d, e, a

====

# ASSAYED_TARGET: human TLR7 (Homo sapiens, UniProt Q9NYK1)
# Sequence (Q9NYK1 27-1049): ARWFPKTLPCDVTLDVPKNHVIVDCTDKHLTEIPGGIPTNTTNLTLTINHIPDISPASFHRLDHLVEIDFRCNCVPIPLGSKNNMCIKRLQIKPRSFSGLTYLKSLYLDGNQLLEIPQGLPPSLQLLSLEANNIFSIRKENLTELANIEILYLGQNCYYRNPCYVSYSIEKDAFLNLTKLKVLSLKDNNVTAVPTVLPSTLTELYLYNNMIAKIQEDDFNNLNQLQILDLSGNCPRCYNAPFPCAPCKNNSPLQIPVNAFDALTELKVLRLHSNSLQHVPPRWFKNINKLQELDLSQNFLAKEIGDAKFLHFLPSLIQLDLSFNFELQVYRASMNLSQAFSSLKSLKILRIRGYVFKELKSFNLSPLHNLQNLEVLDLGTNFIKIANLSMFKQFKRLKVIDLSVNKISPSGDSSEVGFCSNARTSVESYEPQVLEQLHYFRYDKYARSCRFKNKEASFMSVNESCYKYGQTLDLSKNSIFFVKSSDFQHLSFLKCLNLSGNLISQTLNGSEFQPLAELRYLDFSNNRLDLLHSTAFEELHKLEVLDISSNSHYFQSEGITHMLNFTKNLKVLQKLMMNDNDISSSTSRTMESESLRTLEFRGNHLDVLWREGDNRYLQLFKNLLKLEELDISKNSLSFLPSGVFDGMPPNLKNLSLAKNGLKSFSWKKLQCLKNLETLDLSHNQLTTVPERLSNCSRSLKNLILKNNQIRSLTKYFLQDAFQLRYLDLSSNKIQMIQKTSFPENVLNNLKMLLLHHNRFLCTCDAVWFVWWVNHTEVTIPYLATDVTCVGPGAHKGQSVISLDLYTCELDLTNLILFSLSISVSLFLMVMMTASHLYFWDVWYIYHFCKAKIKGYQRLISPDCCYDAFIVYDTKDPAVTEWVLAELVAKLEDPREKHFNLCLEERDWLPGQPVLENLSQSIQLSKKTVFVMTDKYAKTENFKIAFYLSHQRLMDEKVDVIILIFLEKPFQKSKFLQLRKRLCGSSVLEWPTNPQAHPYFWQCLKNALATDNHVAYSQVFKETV
# PROCEDURE_DETAILS: TLR7 inhibition reporter assay (HEK-Blue cells, SEAP reporter, gardiquimod stimulation)
# EXPERIMENTAL_CONDITIONS: HEK-Blue cells overexpressing human TLR7, SEAP reporter, gardiquimod 7.5 μM
QUANTITY_MEASURED: IC50 (nM)

CNC(=O)CN1CC(c2ccc3[nH]c(-c4cc(C)c5ncnn5c4)c(C(C)C)c3c2)C1 [Example 260]	2

A. COc1cc(-c2[nH]c3ccc(C4CCC(N(C)C(C)C)C4)cc3c2C(C)C)cn2ncnc12 (single isomer, unassigned) [Example 277]
B. CCCN1CC(c2ccc3[nH]c(-c4cn(C)c(=O)c(C)c4C)c(C(C)C)c3c2)C1 [Example 488]
C. Cc1cc(-c2[nH]c3ccc(C4CN(C5CCOC(C)(C)C5)C4)cc3c2C(C)C)cn2ncnc12 (stereo not shown) [Example 269]
Ask | Please order the records by their reported IC50, lowest number first. // rank by listing labels in the order requested
Reply | A, C, B
(A: 2 nM, C: 5 nM, B: 22 nM)

====

# ASSAYED_TARGET: human TLR7 (Homo sapiens)
# Sequence (Q9NYK1 27-1049): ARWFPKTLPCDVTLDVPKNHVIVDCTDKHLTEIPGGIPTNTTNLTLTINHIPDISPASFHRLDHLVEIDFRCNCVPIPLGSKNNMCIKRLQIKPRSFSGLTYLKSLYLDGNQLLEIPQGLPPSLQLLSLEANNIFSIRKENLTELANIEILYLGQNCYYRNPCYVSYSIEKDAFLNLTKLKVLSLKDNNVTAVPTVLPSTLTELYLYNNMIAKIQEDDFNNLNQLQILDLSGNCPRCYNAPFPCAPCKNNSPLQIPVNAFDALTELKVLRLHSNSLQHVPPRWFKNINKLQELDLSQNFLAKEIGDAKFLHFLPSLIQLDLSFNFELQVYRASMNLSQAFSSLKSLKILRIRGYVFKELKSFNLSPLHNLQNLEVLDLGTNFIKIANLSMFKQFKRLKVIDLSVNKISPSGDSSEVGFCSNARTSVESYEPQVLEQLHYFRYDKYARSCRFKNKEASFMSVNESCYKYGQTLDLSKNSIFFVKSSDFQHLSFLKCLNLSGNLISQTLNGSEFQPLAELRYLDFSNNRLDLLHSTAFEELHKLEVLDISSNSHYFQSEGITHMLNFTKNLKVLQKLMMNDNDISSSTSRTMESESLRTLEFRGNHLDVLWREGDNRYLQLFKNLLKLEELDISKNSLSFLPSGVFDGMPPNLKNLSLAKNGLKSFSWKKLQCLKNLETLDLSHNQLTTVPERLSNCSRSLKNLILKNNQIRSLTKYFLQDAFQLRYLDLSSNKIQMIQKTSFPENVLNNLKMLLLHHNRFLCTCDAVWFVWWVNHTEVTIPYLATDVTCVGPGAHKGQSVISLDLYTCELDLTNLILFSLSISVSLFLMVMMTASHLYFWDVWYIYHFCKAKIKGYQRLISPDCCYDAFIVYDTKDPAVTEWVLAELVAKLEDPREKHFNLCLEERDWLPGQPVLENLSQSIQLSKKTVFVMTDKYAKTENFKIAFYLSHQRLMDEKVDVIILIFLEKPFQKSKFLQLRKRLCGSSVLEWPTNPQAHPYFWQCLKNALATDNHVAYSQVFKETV
# PROCEDURE_DETAILS: TLR7 inhibition reporter assay (HEK-Blue cells, SEAP reporter, gardiquimod stimulation)
# EXPERIMENTAL_CONDITIONS: HEK-Blue cells overexpressing human TLR7, SEAP reporter, gardiquimod 7.5 μM
QUANTITY_MEASURED: IC50 (nM)

I. COc1cc(-c2[nH]c3ccc(C4CCC(NCC(=O)NC5COC5)CC4)cc3c2C(C)C)cn2ncnc12 (stereo not drawn) [Example 165]
II. Cc1c(-c2[nH]c3ccc(C4CC(NC5COC5)C4)cc3c2C(C)C)cn2ncnc2c1C (stereo not drawn) [Example 575]
III. Cc1cc(-c2[nH]c3ccc(C4CN(CC5(C)COC5)CCO4)cc3c2C(C)C)cn2ncnc12 (stereo not drawn) [Example 292]
Ask | Lab note: rank above entries, IC50 ascending. Rank the items, then write their labels in that order.
Reply | I, II, III

====

# ASSAYED_TARGET: UniProt:Q9NR97
# Sequence (Q9NR97 27-1041): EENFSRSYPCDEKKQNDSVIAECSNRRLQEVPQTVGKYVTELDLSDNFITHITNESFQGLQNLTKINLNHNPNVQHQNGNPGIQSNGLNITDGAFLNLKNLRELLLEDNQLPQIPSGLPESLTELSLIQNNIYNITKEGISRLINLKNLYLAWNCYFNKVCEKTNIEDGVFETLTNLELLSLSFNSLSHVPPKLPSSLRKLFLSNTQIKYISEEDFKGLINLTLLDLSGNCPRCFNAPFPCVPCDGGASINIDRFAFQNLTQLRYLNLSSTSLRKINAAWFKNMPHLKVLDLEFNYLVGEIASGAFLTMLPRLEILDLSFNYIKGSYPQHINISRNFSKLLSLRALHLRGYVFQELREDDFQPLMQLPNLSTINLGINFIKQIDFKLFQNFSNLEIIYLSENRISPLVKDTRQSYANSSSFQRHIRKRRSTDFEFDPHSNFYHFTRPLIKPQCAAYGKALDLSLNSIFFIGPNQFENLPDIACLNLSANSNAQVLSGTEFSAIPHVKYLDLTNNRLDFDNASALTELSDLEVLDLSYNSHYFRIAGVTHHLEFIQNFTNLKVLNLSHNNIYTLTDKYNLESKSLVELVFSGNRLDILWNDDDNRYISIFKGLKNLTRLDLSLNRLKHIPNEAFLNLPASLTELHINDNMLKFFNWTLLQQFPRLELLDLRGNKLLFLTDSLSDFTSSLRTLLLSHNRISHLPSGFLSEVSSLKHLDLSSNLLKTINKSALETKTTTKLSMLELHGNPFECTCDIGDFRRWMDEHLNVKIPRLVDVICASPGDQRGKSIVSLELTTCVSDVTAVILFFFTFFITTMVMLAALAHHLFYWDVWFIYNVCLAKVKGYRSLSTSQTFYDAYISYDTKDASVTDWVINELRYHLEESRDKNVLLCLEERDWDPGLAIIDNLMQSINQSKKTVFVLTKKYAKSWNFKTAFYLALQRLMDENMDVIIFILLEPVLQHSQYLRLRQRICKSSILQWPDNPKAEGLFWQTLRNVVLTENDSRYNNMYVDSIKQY
# PROCEDURE_DETAILS: TLR8 inhibition reporter assay (HEK-Blue cells, SEAP reporter, R848 stimulation)
# EXPERIMENTAL_CONDITIONS: HEK-Blue cells overexpressing human TLR8, SEAP reporter, R848 15.9 μM
QUANTITY_MEASURED: IC50 (nM)

Solved entries (count: 4):
COc1cc(-c2[nH]c3ccc(CCN4CCOCC4)cc3c2C(C)C)cn2ncnc12	7.9
CCN(C)C1CCC(c2ccc3[nH]c(-c4cn5ncnc5c(C)c4C)c(C(C)C)c3c2)CC1 (stereo not shown) [Example 87]	0.63
Cc1c(-c2[nH]c3ccc(C4CC5CN(C)CC5C4)cc3c2C(C)C)cn2cnnc2c1C (stereo not shown)	9.2
Cc1cc(-c2[nH]c3ccc(C4CCCN(C5CCN(C(C)C)CC5)C4)cc3c2C(C)C)cc(C)n1 (stereo not shown)	19

I. CCCN1CC(c2ccc3[nH]c(-c4cn(C)c(=O)c(Cl)c4C)c(C(C)C)c3c2)C1
II. COc1cc(-c2[nH]c3ccc(C4CCC(N5CC[C@@H](N(C)C)C5)CC4)cc3c2C(C)C)cn2ncnc12 (stereo partly shown) [Example 30]
Ask | Hey, between I and II which has a smaller measured IC50? Please identify the chosen entry by its label.
Reply | II
(II: 5 nM, I: 13 nM)

A. Cc1c(-c2[nH]c3ccc(C4CN(CCS(C)(=O)=O)CCO4)cc3c2C(C)C)cn2ncnc2c1C (stereo not shown) [Example 347]
B. Cc1c(-c2[nH]c3ccc(C4CN(Cc5ncn(C)n5)C4)cc3c2C(C)C)cn2cnnc2c1C
Ask | Of A and B , which one carries the higher reported IC50? Write down the label attached to your selection.
Reply | B

1. COc1cc(-c2[nH]c3ccc(CCC4CN(CC(C)(C)O)C4)cc3c2C(C)C)cn2ncnc12
2. COc1cc(-c2[nH]c3ccc(C4CC(N(C)C(=O)CN(C)C)C4)cc3c2C(C)C)cn2ncnc12 (stereo not shown) [Example 588]
3. CNC(=O)CNC1CCC(c2ccc3[nH]c(-c4cc(C)c5ncnn5c4)c(C(C)C)c3c2)CC1 (single isomer, unassigned) [Example 163]
4. Cc1cc(-c2[nH]c3ccc(C4CCC(CN(C)C)CC4)cc3c2C(C)C)cc(C)n1 (stereo not shown)
5. CCN(C)C1CCC(c2ccc3[nH]c(-c4cc(C)c5ncnn5c4)c(C(C)C)c3c2)CC1 (stereo not shown) [Example 62]
Ask | Put the compounds in ascending order of IC50. Arrange the labels as the request states and list them.
Reply | 3, 2, 1, 5, 4
